src = ChEMBL document CHEMBL5653612

I'd be grateful if you could share measured Papp A→B at 1.5 h, 10 µM for these entries.
Experiment: Apparent permeability across apical to basolateral side in human Caco-2 cells at 10 uM incubated for 90 mins at pH 7.4 by LC/MS analysis
Type: ADME, cell-based
Conditions: Caco-2, pH 7.4
One number for each entry, in ×10⁻⁶ cm/s.

CC(C)N(CCCNC(=O)Nc1ccc(C(C)(C)C)cc1)C[C@H]1O[C@@H](n2cc(Br)c3c(N)ncnc32)[C@H](O)[C@@H]1O    5.7

Give Papp A→B at 1.5 h, 10 µM for all compounds that follow.
1. C[C@H]1O[C@@H](O[C@H]2[C@@H](O)C[C@H](O[C@H]3[C@@H](O)C[C@H](O[C@H]4CC[C@@]5(C)[C@H](CC[C@@H]6[C@@H]5C[C@@H](O)[C@]5(C)[C@@H](C7=CC(=O)OC7)CC[C@]65O)C4)O[C@@H]3C)O[C@@H]2C)C[C@H](O)[C@@H]1O [DIGOXIN]
2. COCCc1ccc(OCC(O)CNC(C)C)cc1 (stereo not drawn) [METOPROLOL]

Result:
[0.4, 68.2]
